Values from the Kinase Knowledgebase extract (Sharma et al. 2016)

- tested.target: MAPK14;MAPK11;MAPK12 (human)
- measurement.description: Inhibition of p38 Kinase Activity
property.name: IC50

Worked cases, answers included:
> print(dat)
                                   compound                 tested.target  recorded.value
1  Cc1ccc(C(N)=O)cc1Nc1nc(NC[C@H]2CCCN2)nc(N(C)CC(C)(C)C)n1  MAPK14;MAPK11;MAPK12 (human)          < 1 µM
2  Cc1c(Nc2nc(NCC(C)c3ccccc3)nc(N3CCNCC3)n2)ccc2ncsc12 (centres undefined)  MAPK14;MAPK11;MAPK12 (human)         < 10 µM
3  Cc1cc2c(cc1Cl)C(=O)N2c1nc(N[C@H]2CCNC2)nc(N(C)CC(C)(C)C)n1  MAPK14;MAPK11;MAPK12 (human)          < 1 µM
4  Cc1ccc(C(N)=O)cc1Nc1nc(N[C@H]2CN[C@@H](CO)C2)nc(N(C)CC(C)(C)C)n1  MAPK14;MAPK11;MAPK12 (human)          < 1 µM
5  Cc1ccc(C(=O)NC(C)C)cc1Nc1nc(N[C@H]2CCNC2)nc(N(C)CC(C)C)n1  MAPK14;MAPK11;MAPK12 (human)          < 1 µM
6  COCCNC(=O)c1ccc(C)c(Nc2nc(N[C@H]3CCNC3)nc(N(C)CC(C)C)n2)c1  MAPK14;MAPK11;MAPK12 (human)          < 1 µM
7  CC(CNc1nc(Nc2ccc3ncsc3c2)nc(N2CC3CC2CN3C(=N)N)n1)c1ccccc1 (centres undefined)  MAPK14;MAPK11;MAPK12 (human)         < 10 µM
8  Cc1ccc(C(N)=O)cc1Nc1nc(N[C@H]2CCN(Cc3ccc(C(C)(C)C)cc3)C2)nc(N(C)CC(C)C)n1  MAPK14;MAPK11;MAPK12 (human)          < 1 µM

# next compound below
For CCNC(=O)N1CCN(c2nc(NCC(C)c3ccccc3)nc(Nc3ccc4ncsc4c3)n2)CC1 (centres undefined) , what is its reported IC50?
< 10 µM
